Listed compounds paired with reported MIC90
# System: Prevotella nigrescens
# assay_notes: Antibacterial activity against Prevotella nigrescens by CLSI M11-A6 agar dilution method
# Type: functional

query_smiles	MIC90
CCCCCCCCCC(=O)N[C@@H](Cc1c[nH]c2ccccc12)C(=O)N[C@H](CC(N)=O)C(=O)N[C@@H](CC(=O)O)C(=O)N[C@@H]1C(=O)NCC(=O)N[C@@H](CCCN)C(=O)N[C@@H](CC(=O)O)C(=O)N[C@H](C)C(=O)N[C@@H](CC(=O)O)C(=O)NCC(=O)N[C@H](CO)C(=O)N[C@@H]([C@H](C)CC(=O)O)C(=O)N[C@@H](CC(=O)c2ccccc2N)C(=O)O[C@@H]1C	> 128 µg/mL
CCC[C@@H]1C[C@@H](C(=O)N[C@@H]([C@H]2O[C@H](SC)[C@H](O)[C@@H](O)[C@H]2O)[C@H](C)Cl)N(C)C1	≤ 0.12 µg/mL
CN[C@H](CC(C)C)C(=O)N[C@H]1C(=O)N[C@@H](CC(N)=O)C(=O)N[C@H]2C(=O)N[C@H]3C(=O)N[C@H](C(=O)N[C@H](C(=O)O)c4cc(O)cc(O)c4-c4cc3ccc4O)[C@H](O)c3ccc(c(Cl)c3)Oc3cc2cc(c3O[C@@H]2O[C@H](CO)[C@@H](O)[C@H](O)[C@H]2O[C@H]2C[C@](C)(N)[C@H](O)[C@H](C)O2)Oc2ccc(cc2Cl)[C@H]1O	> 128 µg/mL

----------
Listed compounds paired with reported MIC50
# System: Ruminococcus obeum
# assay_notes: Antibacterial activity against Ruminococcus obeum by CLSI M11-A6 agar dilution method
# Type: functional
# conditions_used: Blautia obeum

query_smiles	target_of_assay	MIC50
CCC[C@@H]1C[C@@H](C(=O)N[C@@H]([C@H]2O[C@H](SC)[C@H](O)[C@@H](O)[C@H]2O)[C@H](C)Cl)N(C)C1	Ruminococcus obeum	≤ 0.12 µg/mL
Cc1ncc([N+](=O)[O-])n1CCO	Ruminococcus obeum	≤ 0.12 µg/mL
CCCCCCCCCCNCCN[C@@]1(C)C[C@H](O[C@H]2[C@H](Oc3c4cc5cc3Oc3ccc(cc3Cl)[C@@H](O)[C@@H](NC(=O)[C@@H](CC(C)C)NC)C(=O)N[C@@H](CC(N)=O)C(=O)N[C@H]5C(=O)N[C@H]3C(=O)N[C@H](C(=O)N[C@H](C(=O)O)c5cc(O)c(CNCP(=O)(O)O)c(O)c5-c5cc3ccc5O)[C@H](O)c3ccc(c(Cl)c3)O4)O[C@H](CO)[C@@H](O)[C@@H]2O)O[C@@H](C)[C@H]1O	Ruminococcus obeum	≤ 0.12 µg/mL
